# maps each entry to its growth
- Test system: SNB-19 CNS
- MEASUREMENT_NOTES: NCI-60 one-dose screen, 48 h (100 = growth as untreated, 0 = no growth, -100 = all killed)
- ASSAY_SETUP: 10 µM
This is part of a sample that, as a whole, favours compounds with a hit. Of some 83,000 tested, about 20% had one in any assay.
QUANTITY: growth (%)

O=C(/C=C/c1cc2ccccc2[nH]c1=O)c1ccc2c(c1)OCO2 88.4
Cc1cc(N(CCCNc2ccnc3cc(Cl)ccc23)Cc2ccc3c(c2)OCO3)nc(N2CCCCC2)n1 14.9
C[C@@H]1C=C2C(=O)O[C@@H]3CC[C@H](C1)[C@]23O 105
c1ccc(CO[C@H]2CO[C@H]3[C@@H]2OC[C@H]3OCc2ccccc2)cc1 101
Cc1nc2oc3ccccc3c(=O)c2cc1C(=O)NCc1ccccc1 84.9
Oc1[nH]c2ccc(Cl)cc2c1/C=c1/ccc2c(c1)N=C(c1cccs1)N=2 62
O=[N+]([O-])c1ccc(Oc2cc(Cl)c(Cl)cc2Cl)c(C(F)(F)F)c1 111

====

- Tested on: SF-539 CNS
- MEASUREMENT_NOTES: NCI-60 one-dose screen, 48 h
- ASSAY_SETUP: 10 µM
About 83,000 compounds went through this panel and 20% of them were active in at least one assay; those are over-represented in the sample as a whole. The source made the active and inactive calls. How the source made its calls: active means growth percent below 10; inactive means the rest.
Outcomes: active, inactive

COMPOUND	TARGET_SYSTEM	LABEL_VALUE
Clc1ccc(/C=C2\CCCC3=C2N=C2SC=NN2C3c2ccc(Cl)cc2)cc1 (stereo not given)	SF-539 CNS	inactive
CCCCCC(=O)c1ccc(OCCCN2CCN(C(=O)OCC)CC2)cc1	SF-539 CNS	inactive
Nc1ncnc2[nH]c(=O)[nH]c12	SF-539 CNS	inactive
O=C1/C(=C/c2ccc(Cl)cc2)SC(=Nc2ccc(Cl)cc2)N1Cc1nc2ccccc2[nH]1	SF-539 CNS	inactive
Cc1cc(N(CCCNc2ccnc3cc(Cl)ccc23)Cc2ccc3c(c2)OCO3)nc(N2CCCCC2)n1	SF-539 CNS	active

====

# maps each entry to its growth
- Test system: SF-295 CNS
- MEASUREMENT_NOTES: NCI-60 one-dose screen, 48 h (100 = growth as untreated, 0 = no growth, -100 = all killed)
- ASSAY_SETUP: 10 µM
Compounds without any hit were thinned out: in the full panel of roughly 83,000, 20% have a hit.

MOLECULE	UNITS_OF_MEASURE	growth
O=c1c2ccccc2nc(SCCN2CCCCC2)n1CCc1ccccc1	%	87.5
CN(C)CCN1C(=O)c2cccc3cc(N)cc(c23)C1=O	%	21.1
Cc1[nH]nc2c1C(c1cnn(C)c1)C(C#N)=C(N)O2 (stereo unspecified)	%	105
CCOC1(OCC)OC(c2ccccc2)=C(C#N)C(/C=C\c2ccccc2)C1(OCC)OCC (stereo unspecified)	%	94.1
CN(C)c1ccc(Cc2ccc(N(C)C)cc2Cl)c(Cl)c1	%	116
CC1=C(N2CCOCC2)C(N2CCOCC2)=C(C)C(=O)C1=O	%	97.2

====

- System: CAKI-1 renal
- MEASUREMENT_NOTES: NCI-60 one-dose screen, 48 h
- ASSAY_SETUP: 10 µM
Compounds without any hit were thinned out: in the full panel of roughly 83,000, 20% have a hit. Activity calls are given as the source filed them. Rule for the calls: active = growth percent below 10; inactive = the rest.
Outcomes: active, inactive

COMPOUND	LABEL_VALUE
COc1ccc(-c2nn(-c3cccc(NC(=O)Nc4cccc(C(F)(F)F)c4)c3)cc2-c2ccncc2)cc1Cl	active
COc1ccc(NC(=O)Cc2nc3nc4sc(C)c(C)c4c(=O)n3[nH]2)cc1	inactive
O=C1C(=O)c2ccccc2C(O)=C1CCCc1ccc(C2CCCCCC2)cc1	active
COc1cc(/C=N/NC(=O)c2ccccc2Nc2ccnc(C(F)(F)F)c2)ccc1O	active
O=C1NC(=O)c2ncccc21	inactive
Cc1ccc(C)c(C(O)(c2cc(C)ccc2C)C2(O)CCCCC2)c1	inactive
COc1cc(/C=C2\CCCC3=C2N=C2SC=NN2C3c2cc(OC)c(OC)c(OC)c2)cc(OC)c1OC (stereo not given)	active
Nc1ccc2c(c1)Cc1cc(N)c(Br)cc1-2	inactive
O=C(Nc1nc(-c2ccccc2Cl)cs1)c1cc(-c2ccc(Cl)cc2)nc2ccc(Cl)cc12	inactive
COc1ccc(-c2nn(-c3cccc(NC(=O)c4cccc(C(F)(F)F)c4)c3)cc2-c2ccncc2)cc1Cl	inactive
Cc1ccc2oc3nc(C)c(C(=O)NCc4ccccc4)cc3c(=O)c2c1	inactive
O=C1/C(=C\c2ccc(Br)cc2)CN(C(=O)c2ccccc2F)C/C1=C\c1ccc(Br)cc1	active
COc1cc(-c2nn3c(/C=C4/C(=O)Nc5ccccc54)c(-c4ccc(C)cc4)nc3s2)cc(OC)c1OC	inactive
O=c1[nH]c2ccc(Cl)cc2c2ccccc12	inactive
Cc1c(Cl)cccc1NC(=O)c1sc2nc3c(cc2c1N)C(=O)CCC3	inactive
COc1ccc(C2=NN(C(=O)c3ccc(S(C)(=O)=O)cc3)C(c3ccc(OC)c(OC)c3)C2)c(OC)c1 (stereo not given)	inactive
COc1cc(-c2nc(-c3nnc(-c4ccc(F)c(Cl)c4)o3)c3ccccn23)cc(OC)c1OC	inactive
CN(C)c1ccc(N=C2C=CC(=O)c3ccccc32)cc1	inactive
COc1ccc(-n2c(SCc3cc(OC)c(OC)c(OC)c3)nc3ccc(C)cc3c2=O)cc1	inactive
COc1ccc(-c2ccc(-c3ccc(C(=N)N)cn3)o2)cc1	inactive
CC(=O)c1cc(Cl)ccc1O	inactive
COc1ccc(Cn2c(C(N)=O)cc3c2-c2nc(N)ncc2CCC3)cc1	inactive
COc1ccccc1CNCCN1C(=O)c2ccc3c4c(ccc(c24)C1=O)C(=O)N(CCNCc1ccccc1OC)C3=O	active
O=C(/C(=C/c1ccccc1)CN1CCCCC1)c1ccccc1	active
O=C(O)c1ccc(P(=O)(O)O)c([N+](=O)[O-])c1	inactive
COc1cc(NC(=O)c2sc3nc4c(cc3c2N)C(O)CCC4)cc(OC)c1 (stereo not given)	inactive
CCN1CCCC1CNC(=O)c1ncc(-c2ccc(C(F)(F)F)cc2)c(NC2CCCCCC2)n1 (stereo not given)	inactive
Oc1[nH]c2ccc(Cl)cc2c1/C=c1/ccc2c(c1)N=C(c1cc(F)cc(F)c1)N=2	inactive
COc1ccc(-c2nc3ncccn3c2-c2nnc(-c3ccsc3C)o2)cc1	inactive
Nc1ncn([C@@H]2O[C@H](CO)[C@@H](O)[C@H]2O)c(=O)n1	inactive
O=C(CC(c1ccccc1)N1CCOCC1)c1ccccc1 (stereo not given)	inactive
Cc1ccc(-c2nc(/C=C3/C(=O)N(C)c4ccc(F)cc43)c3ccccn23)cc1	inactive
CCOCC(=O)C(C#N)c1ccc(Cl)c(Cl)c1 (stereo not given)	inactive
COC(=O)[C@@H]1[C@H](O)[C@H](C)[C@H](O)[C@@](C)(O)/C=C\C=C(C)C(=O)Nc2c(C)c(OC(C)=O)c3c(c2O)C(=O)C(C)=C2OCOC(=C23)C(C)=C[C@@](C)(O)[C@H](O)[C@@H](C)[C@H]1OC(C)=O	inactive
COc1ccc(Nc2ncnc3c2c(SC)nn3-c2ccccc2)cc1	inactive
COc1cc(Nc2ccnc(NCCCNc3ccnc4cc(Cl)ccc34)n2)cc(OC)c1	active
O=C(Nc1cccc(-n2cc(-c3ccncc3)c(-c3ccc(O)c(Cl)c3)n2)c1)c1ccc(N2CCOCC2)c(C(F)(F)F)c1	inactive
CCN(CC)CCNc1ccc(CO)c2oc3cc(Cl)ccc3c(=O)c12	inactive
Cc1nc2c(c(=O)[nH]1)OCN(Cc1ccccc1)C2	inactive
COc1ccc(-c2cc(/C=C3\C(=O)Nc4ccc(OC)cc43)[nH]n2)cc1	inactive
